Test: Inhibition of Bacillus subtilis glutamate racemase
Measurement label: Ki (µM)

>>> experimental_value("O=C(O)c1cccc(C(=O)O)n1")
2700
